Recorded values, source the supplement of paper PMC5908809.

system: DERL-7 (IL-2 2.5 ng/mL); assay: percent inhibition of viability; higher = more inhibition; details: 72 h; 1 nM;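 also: normalised to DMSO-only wells as negative and benzethonium chloride as positive control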
// reported percent inhibition of viability per item
Please answer using a numeric value trailed by its unit.

As a guide, the following entries are already answered.
INSERT INTO measurements (compound, result) VALUES
  ('O=C1c2c(O)ccc(O)c2C(=O)c2c(NCCNCCO)ccc(NCCNCCO)c21 [Mitoxantrone] (max concentration tested 1000 nM)', '-3.99%'),
  ('CN(C)Cc1ccc(S(=O)(=O)n2ccc(/C=C/C(=O)NO)c2)cc1 [Resminostat] (max concentration tested 10000 nM)', '2.49%'),
  ('C/C(=C\c1csc(C)n1)[C@@H]1C[C@@H]2O[C@]2(C)CCC[C@H](C)[C@H](O)[C@@H](C)C(=O)C(C)(C)[C@@H](O)CC(=O)N1 [Ixabepilone] (max concentration tested 1000 nM)', '-1.52%');

INPUT: Given O=NN(CCCl)C(=O)NC1CCCCC1 [Lomustine] (max concentration tested 10000 nM) , state its recorded percent inhibition of viability.
OUTPUT: -0.56%

###

// reported percent inhibition of viability per item
test system: normal primary NK cells, pool 1 (3 donors), resting (IL-2 0 ng/mL); assay: percent inhibition of viability; higher = more inhibition; details: 72 h; 100 nM
Give the value in % but do not write % after it.

INSERT INTO measurements (compound, outcome_measure, output_unit, measured_number) VALUES
  ('CNc1nc(-c2ccc3c(N)n[nH]c3c2)cc(N2C[C@@H](C(=O)NC3CCCCC3)CC[C@H]2C)n1 (max concentration tested 10000 nM)', 'percent inhibition of viability', '%', -3.91),
  ('C[C@@H](Oc1ccc2[nH]nc(/C=C/c3cnn(CCO)c3)c2c1)c1c(Cl)cncc1Cl (max concentration tested 1000 nM)', 'percent inhibition of viability', '%', 13.6),
  ('O=C(O)c1ccc2c(c1)nc(Nc1cccc(Cl)c1)c1ccncc12 [Silmitasertib] (max concentration tested 10000 nM)', 'percent inhibition of viability', '%', -43.9),
  ('CN1CCN(CCOc2cc(OC3CCOCC3)c3c(Nc4c(Cl)ccc5c4OCO5)ncnc3c2)CC1 [Saracatinib] (max concentration tested 10000 nM)', 'percent inhibition of viability', '%', 16.2),
  ('CN[C@@H]1C[C@H]2O[C@@](C)([C@@H]1OC)n1c3ccccc3c3c4c(c5c6ccccc6n2c5c31)C(=O)N[C@H]4O [UCN-01] (max concentration tested 10000 nM)', 'percent inhibition of viability', '%', 23.4);

INPUT: Given Cc1cn(-c2cc(NC(=O)c3ccc(C)c(Nc4nccc(-c5cccnc5)n4)c3)cc(C(F)(F)F)c2)cn1 [Nilotinib] (max concentration tested 10000 nM) , state its recorded percent inhibition of viability.
OUTPUT: -5.01

###

// reported percent inhibition of viability per item
test system: normal primary NK cells, pool 1 (3 donors), resting (IL-2 0 ng/mL); experiment: percent inhibition of viability; higher = more inhibition; details: 72 h; 100 nM
Please answer using a numeric value trailed by its unit.

As a guide, the following entries are already answered.
INSERT INTO assay_data (molecule, outcome_measure, result) VALUES
  ('COc1ccc(-c2ccc3c(N4CCOC[C@@H]4C)nc(N4CCOC[C@@H]4C)nc3n2)cc1CO [AZD8055] (max concentration tested 10000 nM)', 'percent inhibition of viability', '-3.85%'),
  ('Cc1nc(Nc2ncc(C(=O)Nc3c(C)cccc3Cl)s2)cc(N2CCN(CCO)CC2)n1 [Dasatinib] (max concentration tested 1000 nM)', 'percent inhibition of viability', '12.1%');

Continue with the molecule presented below.
INPUT: Given C[C@@H](Oc1cc(-c2cnn(C3CCNCC3)c2)cnc1N)c1c(Cl)ccc(F)c1Cl [Crizotinib] (max concentration tested 1000 nM) , state its recorded percent inhibition of viability.
OUTPUT: 0.53%
